- Tested on: phosphorylation of Histone H3
- assay_name: HeLa cell 1-hour phospho-histone assay
- Assay type: cell-based
- condition_notes: Homo sapiens, HeLa, 1 h, HeLa cells, 1 hour; average; given as class symbols; read-out: pHH3 EC50_IP (Avg)
pEC50: −log10 of the molar value.

| molecule | pEC50 |
| --- | --- |
| c1ccc(-c2nnc(Nc3ccc(Oc4ncccc4-c4ccnc(NCCCN5CCNCC5)n4)cc3)c3ccccc23)cc1 [compound 340] | 6.30 to 7.00 |
| Cc1cc(Br)cnc1Nc1ccc(Oc2ncccc2-c2ccncc2)cc1 [compound 264] | 5.60 to 6.30 |
| Cc1csc(-c2nnc(Nc3ccc(Oc4ncccc4-c4ccnc(N)n4)cc3)c3ccccc23)c1 [compound 331] | ≥ 7.00 |
| OCCCNc1nccc(-c2cccnc2Oc2ccc(Nc3nnc(-c4ccccc4)c4ccccc34)cc2)n1 [compound 339] | 6.30 to 7.00 |
| Cc1cc(N2CCCCC2)nnc1Nc1ccc(Oc2ncccc2-c2ccnc(N)n2)cc1 [compound 334] | 5.60 to 6.30 |
| Nc1nccc(-c2cccnc2Oc2ccc(Nc3nnc(-c4cccc(CCCO)c4)c4ccccc34)cc2)n1 [compound 344] | ≥ 7.00 |
| Cc1cc(-c2ccccc2)nnc1Nc1ccc(Oc2ncccc2-c2ccncc2)cc1 [compound 417] | 5.60 to 6.30 |
| Cc1csc(-c2nnc(Nc3ccc(Oc4ncccc4-c4c[nH]nc4N)cc3)c3ccccc23)c1 [compound 307] | 6.30 to 7.00 |
| CN(C)Cc1cccc(-c2nnc(Nc3ccc(Oc4ncccc4-c4ccnc(N)n4)cc3)c3ccccc23)c1 [compound 299] | 5.60 to 6.30 |
| Nc1nccc(-c2cccnc2Oc2ccc(Nc3nnc(-c4ccccc4)c4ccccc34)cn2)n1 [compound 415] | ≥ 7.00 |
| Nc1n[nH]cc1-c1cccnc1Oc1ccc(Nc2nnc(-c3ccc(Cl)cc3)c3ccccc23)cc1 [compound 306] | 6.30 to 7.00 |
| CCN(CCO)CCCCNc1nccc(-c2cccnc2Oc2ccc(Nc3nnc(-c4ccccc4)c4ccccc34)cc2)n1 [compound 347] | ≥ 7.00 |
| Nc1cc(-c2cccnc2Oc2ccc(Nc3nnc(-c4ccccc4)c4ccccc34)cn2)ccn1 [compound 431] | ≥ 7.00 |

----------
- tgt: AuroraA-TPX2 (Homo sapiens, UniProt O14965)
- Construct: 20 µL of AuroraA-TPX2 KD GST; GST
- Sequence (O14965 133-383 limits assumed): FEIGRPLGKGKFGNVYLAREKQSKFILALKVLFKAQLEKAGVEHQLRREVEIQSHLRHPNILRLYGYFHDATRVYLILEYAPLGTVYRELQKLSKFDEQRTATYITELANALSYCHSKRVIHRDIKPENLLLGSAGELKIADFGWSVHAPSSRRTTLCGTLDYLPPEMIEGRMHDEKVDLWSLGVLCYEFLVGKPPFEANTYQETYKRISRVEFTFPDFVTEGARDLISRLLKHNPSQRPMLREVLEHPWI
- Sequence (Q9ULW0 1-43 partner limits assumed): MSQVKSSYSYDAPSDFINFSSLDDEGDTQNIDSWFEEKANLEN
- assay_name: AuroraA-TPX2 Homogeneous Time Resolved Fluorescent (HTRF) kinase assay
- Type: biochemical
- condition_notes: average; given as class symbols; read-out: AurA/TP X2_ IC50_IP (Avg)
pIC50: −log10 of the molar value.
Below, each entry is listed with its recorded pIC50.

| molecule | pIC50 |
| --- | --- |
| CN1CCN(CCCNc2nccc(-c3cccnc3Oc3ccc(Nc4nnc(-c5ccccc5)c5ccccc45)cc3)n2)CC1 | ≥ 7.00 |
| Nc1nccc(-c2cccnc2Oc2ccc(Nc3nnc(N4CCN5CCCC5C4)c4ccccc34)cn2)n1 (stereo not drawn) | ≥ 7.00 |
| Nc1nccc(-c2cccnc2Oc2ccc(Nc3nnc(N4CCN5CCCC5C4)c4ccccc34)cc2)n1 (stereo not drawn) | ≥ 7.00 |
| CCN(CCO)CCCNc1nccc(-c2cccnc2Oc2ccc(Nc3nnc(-c4ccccc4)c4ccccc34)cc2)n1 | 6.30 to 7.00 |
| Cc1cc(N2CCCCC2)nnc1Nc1ccc(Oc2ncccc2-c2ccnc(N)n2)cc1 | 6.30 to 7.00 |
| CN(C)Cc1cccc(-c2nnc(Nc3ccc(Oc4ncccc4-c4ccnc(N)n4)cc3)c3ccccc23)c1 | 6.30 to 7.00 |
